tested on: wheat (Triticum aestivum); assay: Test B pre-/postemergence plant response; assay type: in vivo; details: Preemergence, 125 g ai/ha; scale 0 to 100, 0 no effect, 100 complete control
Entries annotated with measured Plant response rating, Wheat

Here is how some compounds turned out for Plant response rating, Wheat.
Bench note: what Plant response rating, Wheat did `O=C1CCCC(O)=C1C(=O)c1cnc(-c2ccsc2)n(-c2ccccc2)c1=O` show?
0

Bench note: what Plant response rating, Wheat did `O=C1CCCC(O)=C1C(=O)c1cnc(-c2cccc(Cl)c2)n(-c2ccc(Cl)cc2)c1=O` show?
0

Bench note: what Plant response rating, Wheat did `COc1ccc(-n2c(-c3ccccc3)ncc(C(=O)C3=C(O)CCCC3=O)c2=O)cc1OC` show?
0

Bench note: what Plant response rating, Wheat did O=C1CCCC(O)=C1C(=O)c1cnc(-c2ccccc2)n(CC2CCCO2)c1=O (stereo not drawn) show?
0

Others:
Bench note: what Plant response rating, Wheat did `CCc1ccccc1-n1c(-c2ccccc2)ncc(C(=O)C2=C(O)CCCC2=O)c1=O` show?
0

Bench note: what Plant response rating, Wheat did `COCCn1c(-c2cc(F)cc(F)c2)ncc(C(=O)C2=C(O)CCCC2=O)c1=O` show?
30

---

Entries annotated with measured Barnyardgrass plant response rating
tested on: barnyardgrass (Echinochloa crus-galli); assay: Test A pre-/postemergence plant response; format: in vivo; conditions: Postemergence, 125 g ai/ha; visual injury, 0 to 100 scale (0 no effect, 100 complete control), approx. ten days
Reply with the value as a number alone.

Bench note: what Barnyardgrass plant response rating did `O=C1CCCC(O)=C1C(=O)c1cnc(-c2ccccc2)n(-c2cccc(Br)c2)c1=O` show?
60

Bench note: what Barnyardgrass plant response rating did `CCCCCCc1ncc(C(=O)C2=C(O)CCCC2=O)c(=O)n1-c1ccccc1` show?
10

Bench note: what Barnyardgrass plant response rating did `O=C1CCCC(O)=C1C(=O)c1cnc(-c2ccc(Cl)s2)n(-c2ccccc2)c1=O` show?
10

Then there is this molecule:
Bench note: what Barnyardgrass plant response rating did `Cc1ccc(-n2c(-c3ccccc3)ncc(C(=O)C3=C(O)CCCC3=O)c2=O)c(C)c1` show?
30

---

tested on: galium (catchweed bedstraw, Galium aparine); experiment: Test B pre-/postemergence plant response; type: in vivo; settings: Preemergence, 62 g ai/ha; scale 0 to 100 (0 no effect, 100 complete control)
Entries annotated with measured Plant response rating, Galium

Bench note: what Plant response rating, Galium did `COCCCn1c(-c2cc(F)cc(F)c2)ncc(C(=O)C2=C(O)CCCC2=O)c1=O` show?
90

Bench note: what Plant response rating, Galium did CCCc1ncc(C(=O)C2=C(O)CCCC2=O)c(=O)n1CC1CCCO1 (centres unmarked) show?
30

Bench note: what Plant response rating, Galium did `Cc1c(Cl)cccc1-n1c(-c2ccccc2)ncc(C(=O)C2=C(O)CCCC2=O)c1=O` show?
70

Bench note: what Plant response rating, Galium did `Cc1cc(-n2c(-c3ccccc3)ncc(C(=O)C3=C(O)CCCC3=O)c2=O)ccc1F` show?
0

Bench note: what Plant response rating, Galium did `COc1ccc(-n2c(-c3ccccc3)ncc(C(=O)C3=C(O)CCCC3=O)c2=O)cc1OC` show?
80

Bench note: what Plant response rating, Galium did `CCCCc1ncc(C(=O)C2=C(O)CCCC2=O)c(=O)n1-c1ccccc1` show?
0

Others:
Bench note: what Plant response rating, Galium did `CCCn1c(-c2cccs2)ncc(C(=O)C2=C(O)CCCC2=O)c1=O` show?
20

Bench note: what Plant response rating, Galium did `Cc1ccccc1-n1c(-c2ccccc2)ncc(C(=O)C2=C(O)CCCC2=O)c1=O` show?
50

---

system: woolly cupgrass (Eriochloa villosa); assay: Test B pre-/postemergence plant response; type: in vivo; conditions: Preemergence, 31 g ai/ha; scale 0 to 100 (0 no effect, 100 complete control)
Entries annotated with measured Plant response rating, Cupgrass, Woolly
Reply with the value as a number alone.

Here is how some compounds turned out for Plant response rating, Cupgrass, Woolly.
Bench note: what Plant response rating, Cupgrass, Woolly did CCc1ccc(-n2c(-c3ccccc3)ncc(C(=O)C3=C(O)CCCC3=O)c2=O)cc1 [Compound 219] show?
0

Bench note: what Plant response rating, Cupgrass, Woolly did Cc1cc(-n2c(-c3ccccc3)ncc(C(=O)C3=C(O)CCCC3=O)c2=O)ccc1F [Compound 53] show?
0

Bench note: what Plant response rating, Cupgrass, Woolly did COCCn1c(-c2cc(F)cc(F)c2)ncc(C(=O)C2=C(O)CCCC2=O)c1=O [Compound 119] show?
65

Bench note: what Plant response rating, Cupgrass, Woolly did Cc1ccccc1-n1c(-c2cccc(Cl)c2)ncc(C(=O)C2=C(O)CCCC2=O)c1=O [Compound 36] show?
0

Bench note: what Plant response rating, Cupgrass, Woolly did Cc1ccccc1-n1c(-c2ccccc2)ncc(C(=O)C2=C(O)CCCC2=O)c1=O [Compound 12] show?
0

Then there is this compound:
Bench note: what Plant response rating, Cupgrass, Woolly did Cc1ccc(F)cc1-n1c(-c2ccccc2)ncc(C(=O)C2=C(O)CCCC2=O)c1=O [Compound 44] show?
0

---

System: giant foxtail (Setaria faberii)
Test: Test A pre-/postemergence plant response
Format: in vivo
Settings: Preemergence, 500 g ai/ha; visual injury, 0 to 100 scale (0 no effect, 100 complete control), approx. ten days
From the text: Seeds of barnyardgrass (Echinochloa crus-galli), large crabgrass (Digitaria sanguinalis), giant foxtail (Setaria faberii), morningglory (Ipomoea spp.), pigweed (Amaranthus retroflexus), velvetleaf (Abutilon theophrasti), wheat (Triticum aestivum) and corn (Zea mays) were planted into a blend of loam soil and sand and treated preemergence with a directed soil spray using test chemicals formulated in a non-phytotoxic solvent mixture which included a surfactant. […]
Entries annotated with measured Plant response rating, Foxtail, Giant
Reply with the value as a number alone.

Here is how some compounds turned out for Plant response rating, Foxtail, Giant.
Bench note: what Plant response rating, Foxtail, Giant did CCn1ncc(C(=O)c2cnc(-c3ccccc3)n(-c3ccccc3)c2=O)c1OS(=O)(=O)c1ccc(C)cc1 [Compound 16] show?
70

Bench note: what Plant response rating, Foxtail, Giant did CCCc1ncc(C(=O)C2=C(O)CCCC2=O)c(=O)n1Cc1ccc(OC)c(OC)c1 [Compound 84] show?
0

Bench note: what Plant response rating, Foxtail, Giant did COCCn1c(-c2cccc(C)c2)ncc(C(=O)C2=C(O)CCCC2=O)c1=O [Compound 117] show?
70

Then there is this compound:
Bench note: what Plant response rating, Foxtail, Giant did CCCCc1ncc(C(=O)C2=C(O)CCCC2=O)c(=O)n1-c1ccc(C)cc1 [Compound 67] show?
50

---

system: rice (Oryza sativa); assay: Test B flooded paddy test; type: in vivo; conditions: 250 g ai/ha; flooded paddy test; visual rating on 0 to 100 scale (0 no effect, 100 complete control) after 13 to 15 days
Output y for records whose Plant response rating, Flood, Rice is lower than 20, n for records at or above 20.

Recorded results for 5 compounds are shown here.
Lab note: confirm whether the reported Plant response rating, Flood, Rice for this compound is below 20, equality not counting. compound: CCn1c(-c2cccc(C)c2)ncc(C(=O)C2=C(O)C3CCC(C3)C2=O)c1=O (stereo not shown)
y

Lab note: confirm whether the reported Plant response rating, Flood, Rice for this compound is below 20, equality not counting. compound: `COCCCn1c(-c2cc(F)cc(F)c2)ncc(C(=O)C2=C(O)CCCC2=O)c1=O`
n

Lab note: confirm whether the reported Plant response rating, Flood, Rice for this compound is below 20, equality not counting. compound: `Cc1ccc(C)c(-n2c(-c3ccccc3)ncc(C(=O)c3cnoc3C3CC3)c2=O)c1`
y

Lab note: confirm whether the reported Plant response rating, Flood, Rice for this compound is below 20, equality not counting. compound: `CCCCc1ncc(C(=O)C2=C(O)CCCC2=O)c(=O)n1-c1ccc(C)cc1`
y

Lab note: confirm whether the reported Plant response rating, Flood, Rice for this compound is below 20, equality not counting. compound: `COCCn1c(-c2cccc(F)c2)ncc(C(=O)C2=C(O)CCCC2=O)c1=O`
n

Others:
Lab note: confirm whether the reported Plant response rating, Flood, Rice for this compound is below 20, equality not counting. compound: `CCCCCCc1ncc(C(=O)C2=C(O)CCCC2=O)c(=O)n1-c1ccccc1`
y

Lab note: confirm whether the reported Plant response rating, Flood, Rice for this compound is below 20, equality not counting. compound: `Cc1cc(C)cc(-n2c(-c3ccccc3)ncc(C(=O)C3=C(O)CCCC3=O)c2=O)c1`
n

Lab note: confirm whether the reported Plant response rating, Flood, Rice for this compound is below 20, equality not counting. compound: `CCCCn1c(-c2cccc(F)c2)ncc(C(=O)C2=C(O)CCCC2=O)c1=O`
y

Lab note: confirm whether the reported Plant response rating, Flood, Rice for this compound is below 20, equality not counting. compound: `O=C1CCCC(O)=C1C(=O)c1cnc(-c2cccc(F)c2)n(C2CCCCC2)c1=O`
n

Lab note: confirm whether the reported Plant response rating, Flood, Rice for this compound is below 20, equality not counting. compound: `CCn1c(-c2cccc(Cl)c2)ncc(C(=O)C2=C(O)CCCC2=O)c1=O`
y

Lab note: confirm whether the reported Plant response rating, Flood, Rice for this compound is below 20, equality not counting. compound: O=C(C1=C(O)C2CCC(C2)C1=O)c1cnc(-c2cc(F)c(F)c(F)c2)n(C2CCCCC2)c1=O (stereo not shown)
y

Lab note: confirm whether the reported Plant response rating, Flood, Rice for this compound is below 20, equality not counting. compound: `O=C1CCCC(O)=C1C(=O)c1cnc(-c2ccccc2)n(-c2ccc(F)cc2F)c1=O`
n

Lab note: confirm whether the reported Plant response rating, Flood, Rice for this compound is below 20, equality not counting. compound: `CCCCn1c(-c2cccc(C)c2)ncc(C(=O)C2=C(O)CCCC2=O)c1=O`
y

Lab note: confirm whether the reported Plant response rating, Flood, Rice for this compound is below 20, equality not counting. compound: `Cc1cc(-n2c(-c3cccc(F)c3)ncc(C(=O)C3=C(O)CCCC3=O)c2=O)ccc1F`
y

Lab note: confirm whether the reported Plant response rating, Flood, Rice for this compound is below 20, equality not counting. compound: `O=C1CCCC(O)=C1C(=O)c1cnc(-c2cc(F)cc(F)c2)n(-c2ccccc2)c1=O`
n

Lab note: confirm whether the reported Plant response rating, Flood, Rice for this compound is below 20, equality not counting. compound: `Cc1c(Cl)cccc1-n1c(-c2ccccc2)ncc(C(=O)C2=C(O)CCCC2=O)c1=O`
n

Lab note: confirm whether the reported Plant response rating, Flood, Rice for this compound is below 20, equality not counting. compound: `COc1ccc(-n2c(-c3ccccc3)ncc(C(=O)C3=C(O)CCCC3=O)c2=O)cc1OC`
y

Lab note: confirm whether the reported Plant response rating, Flood, Rice for this compound is below 20, equality not counting. compound: `CCCn1c(-c2cc(F)cc(F)c2)ncc(C(=O)C2=C(O)CCCC2=O)c1=O`
n
